Data provenance is patent US8263605B2.

# TESTED ON: M4 muscarinic receptor (Homo sapiens, UniProt P08173)
# Construct: expressed in transfected cells; host or cells: CHO (M4-CHO)
# METHOD DESCRIPTION: Functional mobilization of intracellular calcium (FLIPR), M4-CHO cells
# Type: cell-based
# RUN CONDITIONS: 100% efficacy is the maximum response obtained with the Carbachol control
Documented Emax across a set of compounds

COMPOUND	Emax
CN(C)C(=O)N1CCC2(CCN(C3CCNCC3)CC2)c2ccccc21 [compound 33]	< 25%
CN(C)C(=O)N1CC2(CCN(C3CC4CCC(C3)N4c3cnccn3)CC2)c2ccccc21 (stereo not shown) [Compound No. 103]	> 100%
CCc1nsc(N2CC[C@H](CN3CCC4(CC3)CN(C(=O)N(C)C)c3ccccc34)C2)n1 [compound 84]	25 to 100%

Prompt line: I am curious: what Emax value has been reported for CN(C)C(=O)N1CCC2(CCN(C3CC4CCC(C3)N4c3cnccn3)CC2)c2ccccc21 (stereo not shown) [compound 30] ?
Response line: 25 to 100%

Prompt line: Data request, read-out Emax, for CN(C)C(=O)N1CC2(CCN(C[C@H]3CCN(C(=O)OCC(F)F)C3)CC2)c2ccccc21 [compound 63]
Response line: 25 to 100%

Prompt line: Item under review: C#CCOC(=O)N1CCCC(N2CCC3(CC2)CN(C(=O)N(C)C)c2ccccc23)CC1 (stereo not shown) [compound 104] . Reported Emax?
Response line: > 100%

Prompt line: # lookup: Emax of COCCOC(=O)N1CC[C@@H](CN2CCC3(CC2)CN(C(=O)N(C)C)c2ccccc23)C1 [compound 58]
Response line: 25 to 100%

Prompt line: // returns reported Emax for input Cc1ncc(N2CCC(N3CCC4(CCN(C(=O)N(C)C)c5ccccc54)CC3)CC2)nc1C [Compound No. 20]
Response line: 25 to 100%

Prompt line: Request the reported Emax associated with CN(C)C(=O)N1CC2(CCN(C3CCN(c4nc5ccccc5o4)CC3)CC2)c2ccccc21 [compound 118]
Response line: < 25%

Prompt line: Any idea what Emax was measured for CCOC(=O)N1CCC(N2CCC3(CCN(C(=O)N(C)C)c4ccccc43)CC2)CC1 [compound 3] ?
Response line: > 100%

Prompt line: Which Emax reading was recorded for the compound CN(C)C(=O)N1CC2(CCN(C[C@@H]3CCN(c4cnccn4)C3)CC2)c2ccccc21 [compound 109] ?
Response line: > 100%

Prompt line: Consider the compound shown here: CN(C)C(=O)N1CCC2(CCN(C3CCN(C(=O)OCCC#N)CC3)CC2)c2ccccc21 [compound 19] What is its recorded Emax?
Response line: 25 to 100%

====

# TESTED ON: M4 muscarinic receptor (Homo sapiens)
# Construct: expressed in transfected cells; host or cells: CHO (M4-CHO)
# Sequence (P08173 1-479): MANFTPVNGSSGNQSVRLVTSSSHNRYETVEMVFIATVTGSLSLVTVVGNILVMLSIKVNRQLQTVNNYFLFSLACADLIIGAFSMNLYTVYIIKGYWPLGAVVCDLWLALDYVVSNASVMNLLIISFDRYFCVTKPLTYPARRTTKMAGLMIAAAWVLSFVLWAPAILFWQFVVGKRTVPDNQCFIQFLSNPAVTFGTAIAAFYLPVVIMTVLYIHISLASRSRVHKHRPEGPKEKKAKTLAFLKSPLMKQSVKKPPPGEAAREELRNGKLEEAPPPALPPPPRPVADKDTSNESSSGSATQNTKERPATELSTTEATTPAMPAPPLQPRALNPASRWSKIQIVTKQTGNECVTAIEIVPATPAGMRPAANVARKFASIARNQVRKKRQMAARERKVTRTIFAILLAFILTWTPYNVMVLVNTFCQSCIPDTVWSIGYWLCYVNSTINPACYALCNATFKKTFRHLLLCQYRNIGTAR
# METHOD DESCRIPTION: Functional mobilization of intracellular calcium (FLIPR), M4-CHO cells
# Format: cell-based
# RUN CONDITIONS: 100% efficacy is the maximum response obtained with the Carbachol control
Emax: recorded values

Study these solved cases before continuing.
COMPOUND	Emax
CCCOC(=O)N1CCC(N2CCC3(CC2)CN(C(=O)N(C)C)c2ccccc23)CC1	25 to 100%
COC(=O)N1CCC(N2CCC3(CCN(C(=O)N(C)C)c4ccccc43)CC2)CC1	25 to 100%
CCCOC(=O)N1CC[C@@H](CN2CCC3(CC2)CN(C(=O)N(C)C)c2ccccc23)C1	25 to 100%
CN(C)C(=O)N1CC2(CCN(C3CCN(c4cncc(-c5ccccc5O)n4)CC3)CC2)c2ccccc21	< 25%
Cc1nsc(N2CCC(C)(N3CCC4(CC3)CN(C(=O)N(C)C)c3ccccc34)CC2)n1	< 25%

Prompt line: # input compound: C#CCCOC(=O)N1CCC(N2CCC3(CC2)CN(C(=O)N(C)C)c2ccccc23)CC1 ; wanted: its Emax
Response line: 25 to 100%

Prompt line: Sample CC(=O)N1CCC2(CCN(C3CCN(c4cnccn4)CC3)CC2)c2ccccc21 — what was its Emax?
Response line: 25 to 100%

Prompt line: Recorded Emax for CCC#CCOC(=O)N1CCC(N2CCC3(CC2)CN(C(=O)N(C)C)c2ccccc23)CC1 , please?
Response line: 25 to 100%

Prompt line: Entry under review: C#CCOC(=O)N1CCC(N2CCC3(CCN(C(C)=O)c4ccccc43)CC2)CC1 . Reported Emax?
Response line: 25 to 100%

Prompt line: What value of Emax has been reported for the following compound? CCOC(=O)N1C2CCC1CC(N1CCC3(CCN(C(=O)N(C)C)c4ccccc43)CC1)C2 (centres unmarked)
Response line: 25 to 100%

Prompt line: Would you kindly share the measured Emax for CC#CCOC(=O)N1C2CCC1CC(N1CCC3(CC1)CN(C(=O)N(C)C)c1ccccc13)C2 (centres unmarked) ?
Response line: 25 to 100%

Prompt line: # input compound: C#CCOC(=O)N1CCC(N2CCC3(CC2)CN(C(=O)N(C)C)c2ccccc23)CC1 ; wanted: its Emax
Response line: > 100%

Prompt line: Need Emax of CN(C)C(=O)N1CC2(CCN(C3CCN(c4nncs4)CC3)CC2)c2ccccc21 , thanks.
Response line: 25 to 100%

Prompt line: What measured Emax goes with CC#CCOC(=O)N1CCC(N2CCC3(CCN(C(C)=O)c4ccccc43)CC2)CC1 ?
Response line: 25 to 100%

Prompt line: Bench note: what Emax did CN(C)C(=O)N1CC2(CCN(C3CCN(c4cnc5ccccc5n4)CC3)CC2)c2ccccc21 show?
Response line: 25 to 100%
